Assay: RAM pathway blockade in budding yeast – dse1pr::URA3 reporter, 5-FOA selection, pilot screen (AID 869);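 further: 0% = DMSO wells with no growth and 100% = 10 µM 1-NA-PP1 with full growth; RAM network block rescues cells from 5-FOA so hits raise OD615 growth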
Conditions: S. cerevisiae dse1pr::URA3 5-FOA growth, OD615, 2 d; at 10 µM; stronger effect = higher value; strain carries analog-sensitive mutant Cbk1 kinase
Value Kind: inhibition (%)
Please reply with the bare figure in % and do not write the unit itself.

Here are 4 compounds together with their reported answers.
Compound	Reading
O=C(Nc1nnc(-c2ccccc2)s1)c1ccc(Cl)c(S(=O)(=O)N2CCOCC2)c1	2.61
CC(=O)c1ccc(NC(=O)CSC(C)C)cc1	1.36
Cc1ccc(S(=O)(=O)N(CC(=O)N2CCC(C(N)=O)CC2)Cc2ccc(F)cc2)cc1	-0.07
CCN1CCN(C(=O)c2oc(=O)c3ccccc3c2-c2ccc(C)cc2)CC1	2.07

-- ask Requested read-out: inhibition. Entry: "OC1(c2cccc(C(F)(F)F)c2)CCN(c2ccc(-c3ccccc3)nn2)CC1"
-- reply 1.11

-- ask Requested read-out: inhibition. Entry: "Cc1nnc(SCC(=O)Nc2c(Cl)cccc2Cl)[nH]c1=O"
-- reply 1.54

-- ask Requested read-out: inhibition. Entry: "O=C(NCCN1CCCC1)c1ccc(CS(=O)(=O)c2c(Cl)cccc2Cl)o1"
-- reply 1.5

-- ask Requested read-out: inhibition. Entry: O=C(O)CC(CNS(=O)(=O)c1ccccc1)c1ccccc1 (stereo not given)
-- reply 1.54
